Origin of values: BindingDB's records for PubMed 35063895

Some molecules, each annotated with its measured IC50.
assay: CD4 mimetic activity at gp120 in HIV-1 KP-5mvcR infected in human TZM-bl cells assessed as inhibition of viral entry by measuring reduction in RLU by single round assay
READOUT_TYPE: IC50 (µM)

• CC1(C)CC(NC(=O)C(=O)Nc2ccc(Cl)cc2)CC(C)(C)N1 = 0.27
• CC1(C)CC(NC(=O)C(=O)Nc2ccc(F)nc2)CC(C)(C)N1 = 5.1
• COCCOCCOCCOCCOCCOCCOCCOCCOCCOCCOCCOCCNC(=O)CCC(=O)N[C@@H](CCCNC(=N)N)C(=O)NCCN1CCC(NC(=O)C(=O)Nc2ccc(Cl)cc2)CC12CCCCC2 (some centres not stated) = 6.7
